Attribute: protein stability index
B1: FAM107A (parent)
chain: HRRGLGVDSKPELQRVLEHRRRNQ

Variants of: B1
Assay: protein stability index of a GFP-peptide fusion (GPS, HEK-293T) (PSI 1-6); higher = more stable;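 also: lentivirally expressed fusions sorted by FACS into six bins by GFP to DsRed ratio, PSI derived from sequencing read proportions per bin multiplied by bin number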
Settings: c terminus: a fixed tail appended

Here are 4 variants together with their reported answers.
R20Q = 3.96
G6D = 2.51
R22W = 2.46
Q24Y = 2.79

Determine from records and report protein stability index for Q14S 3.71

Determine from records and report protein stability index for R20L 3.31

Determine from records and report protein stability index for E18N 4.02

Determine from records and report protein stability index for K10W 2.6

Determine from records and report protein stability index for Q24K 4.39

Determine from records and report protein stability index for E18P 5.02

Determine from records and report protein stability index for G4I 4.21

Determine from records and report protein stability index for P11W 3.25
